Form field: EC (100% increase) (one value per entry).
Biological target: cyclic oxygenase (Ovis aries)
Construct: As an enzyme source a homogenizate of sheep spermatocele; from tissue; host or cells: homogenate of sheep 'spermatocele' (read as seminal vesicle)
Experiment: effect on biosynthesis of prostaglandins: activity of cyclic oxygenase, oxygen consumption with arachidonic acid substrate (Clark electrode)
Type: biochemical, sheep
Settings: concentration for 100% increase in oxygen consumption, read-out: AC100%
Counter-ions that a name gives are not always drawn.
Measure: EC (100% increase) (µM)

{"Compound": "COc1cc2c(cc1OC)C(C(C#N)SCCN(C)C)=NCC2 (stereo not drawn) [Example 15, hydrochloride]", "Recorded number": 124}
{"Compound": "N#CC(SCCC(=O)O)C1=NCCc2ccccc21 (stereo not drawn) [Example 8]", "Recorded number": 96}
{"Compound": "CCN(CC)CCSC(C#N)C1=NCCc2cc(OC)c(OC)cc21 (stereo not drawn) [Example 14, hydrochloride]", "Recorded number": 395}
{"Compound": "COc1cc2c(cc1OC)C(C(C#N)SCCCO)=NCC2 (stereo not drawn) [Example 4]", "Recorded number": 140}
{"Compound": "COc1cc2c(cc1OC)C(C(C#N)SCC(=O)O)=NCC2 (stereo not drawn) [Example 6]", "Recorded number": 225}
{"Compound": "CCOC(=O)CSC(C#N)C1=NCCc2cc(OC)c(OC)cc21 (stereo not drawn) [Example 18]", "Recorded number": 138}
{"Compound": "N#CC(SCC(=O)O)C1=NCCc2ccccc21 (stereo not drawn) [Example 5]", "Recorded number": 80}
{"Compound": "COc1cc2c(cc1OC)C(C(C#N)SCCO)=NCC2 (stereo not drawn) [Example 3]", "Recorded number": 200}
{"Compound": "COc1cc2c(cc1OC)C(C(C#N)SCC(=O)NN)=NCC2 (stereo not drawn) [Example 22]", "Recorded number": 1800}

----------
Biological target: cyclic oxygenase (Ovis aries, UniProt P05979)
Construct: As an enzyme source a homogenizate of sheep spermatocele; from tissue; host or cells: homogenate of sheep 'spermatocele' (read as seminal vesicle)
Sequence (P05979 25-600): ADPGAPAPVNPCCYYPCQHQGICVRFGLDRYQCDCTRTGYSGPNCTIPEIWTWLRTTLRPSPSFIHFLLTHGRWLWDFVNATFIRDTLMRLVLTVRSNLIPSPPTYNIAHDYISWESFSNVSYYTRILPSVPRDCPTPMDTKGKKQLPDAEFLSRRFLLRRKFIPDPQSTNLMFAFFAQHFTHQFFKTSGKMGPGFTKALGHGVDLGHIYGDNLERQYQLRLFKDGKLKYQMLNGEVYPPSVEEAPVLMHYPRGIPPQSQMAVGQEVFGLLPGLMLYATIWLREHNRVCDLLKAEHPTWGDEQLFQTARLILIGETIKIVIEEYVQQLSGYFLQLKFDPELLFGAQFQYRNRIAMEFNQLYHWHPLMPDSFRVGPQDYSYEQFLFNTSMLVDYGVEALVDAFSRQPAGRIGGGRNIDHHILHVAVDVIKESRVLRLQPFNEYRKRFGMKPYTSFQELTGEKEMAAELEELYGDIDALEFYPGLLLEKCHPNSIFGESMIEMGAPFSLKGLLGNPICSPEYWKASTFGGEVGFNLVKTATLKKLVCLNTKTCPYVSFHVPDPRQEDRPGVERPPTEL
Experiment: effect on biosynthesis of prostaglandins: activity of cyclic oxygenase, oxygen consumption with arachidonic acid substrate (Clark electrode)
Assay type: biochemical, sheep
Conditions: concentration for 50% increase in oxygen consumption
Counter-ions that a name gives are not always drawn.
Measure: AC50 (µM)

{"Compound": "N#CC(SCC(=O)O)C1=NCCc2ccccc21 (centres unmarked)", "Recorded number": 40}
{"Compound": "N#CC(SCCC(=O)O)C1=NCCc2ccccc21 (centres unmarked)", "Recorded number": 48}
{"Compound": "COc1cc2c(cc1OC)C(C(C#N)SCCCO)=NCC2 (centres unmarked)", "Recorded number": 70}
{"Compound": "CCN(CC)CCSC(C#N)C1=NCCc2cc(OC)c(OC)cc21 (centres unmarked) [Example 14, hydrochloride]", "Recorded number": 280}
{"Compound": "COc1cc2c(cc1OC)C(C(C#N)SCC(=O)NN)=NCC2 (centres unmarked)", "Recorded number": 720}
